Biological target: T1, gp130 on HepG2 B6 cells (UniProt P40189 23-918, limits assumed)
T1 sequence (looked up): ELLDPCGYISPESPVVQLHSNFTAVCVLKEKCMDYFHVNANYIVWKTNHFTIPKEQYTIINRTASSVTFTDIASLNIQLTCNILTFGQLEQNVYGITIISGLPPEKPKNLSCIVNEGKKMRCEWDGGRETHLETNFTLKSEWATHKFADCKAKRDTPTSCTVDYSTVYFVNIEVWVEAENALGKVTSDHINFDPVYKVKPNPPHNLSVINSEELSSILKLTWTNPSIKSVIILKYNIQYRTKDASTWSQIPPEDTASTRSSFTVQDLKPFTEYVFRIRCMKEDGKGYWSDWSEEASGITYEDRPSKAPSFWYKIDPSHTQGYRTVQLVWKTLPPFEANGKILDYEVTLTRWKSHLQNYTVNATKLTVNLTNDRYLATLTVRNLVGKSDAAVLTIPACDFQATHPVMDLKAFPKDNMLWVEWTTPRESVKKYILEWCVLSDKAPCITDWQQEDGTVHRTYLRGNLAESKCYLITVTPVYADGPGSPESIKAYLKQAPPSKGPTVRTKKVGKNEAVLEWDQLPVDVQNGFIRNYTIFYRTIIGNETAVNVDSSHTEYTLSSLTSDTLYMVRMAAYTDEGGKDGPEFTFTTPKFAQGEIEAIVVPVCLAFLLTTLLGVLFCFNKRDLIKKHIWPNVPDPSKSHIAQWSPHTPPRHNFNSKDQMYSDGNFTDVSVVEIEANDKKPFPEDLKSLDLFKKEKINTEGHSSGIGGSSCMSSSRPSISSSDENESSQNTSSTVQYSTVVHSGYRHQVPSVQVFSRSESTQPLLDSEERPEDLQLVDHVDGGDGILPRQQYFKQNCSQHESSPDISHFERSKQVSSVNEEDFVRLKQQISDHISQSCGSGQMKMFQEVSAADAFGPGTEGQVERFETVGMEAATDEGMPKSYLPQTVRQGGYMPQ
Experiment: cell-based or functional assay
Listed here are binders together with their documented sPAP HepG2 B6 assay: Expt 1 % (EC50 as % of wild type EC50).
observed-property: sPAP HepG2 B6 assay: Expt 1 % (EC50 as % of wild type EC50) (%)

binder | obs-value
OSM-GST mutant S7A (ligand, not shown: a dimerising Fc or GST; large carriers; small tags and cut ends, Alanine mutant of m4; also called (1)S7A; 1 S7A) AAIGSCAKEYRVLLGQLQKQTDLMQDTSRLLDPYIRIQGLDVPKLREHCRERPGAFPSEETLRGLGRRGFLQTLNATLGCVLHRLADLEQRLPKAQDLERSGLNIEDLEKLQMARPNILGLRNNIYCMAQLLDNSDTAEPTKAGRGASQPPTPTPASDAFQRKLEGCRFLHGYHRFMHSVGRVFSKWGESPNRSRR | 50
OSM-GST mutant K8A (ligand, not shown: a dimerising Fc or GST; large carriers; small tags and cut ends, Alanine mutant of m4; also called (2)K8A; 2 K8A) AAIGSCSAEYRVLLGQLQKQTDLMQDTSRLLDPYIRIQGLDVPKLREHCRERPGAFPSEETLRGLGRRGFLQTLNATLGCVLHRLADLEQRLPKAQDLERSGLNIEDLEKLQMARPNILGLRNNIYCMAQLLDNSDTAEPTKAGRGASQPPTPTPASDAFQRKLEGCRFLHGYHRFMHSVGRVFSKWGESPNRSRR | 66
OSM-GST mutant N117A (ligand, not shown: a dimerising Fc or GST; large carriers; small tags and cut ends, Alanine mutant of m4; also called (18)N117A; 18 N117A) AAIGSCSKEYRVLLGQLQKQTDLMQDTSRLLDPYIRIQGLDVPKLREHCRERPGAFPSEETLRGLGRRGFLQTLNATLGCVLHRLADLEQRLPKAQDLERSGLNIEDLEKLQMARPAILGLRNNIYCMAQLLDNSDTAEPTKAGRGASQPPTPTPASDAFQRKLEGCRFLHGYHRFMHSVGRVFSKWGESPNRSRR | 241
